Target Or System: 5HT2 receptor (Rattus norvegicus)
Construct: incubated with isolated cell-membrane fragments
Sequence (P14842 whole entry, the tested form may be a part): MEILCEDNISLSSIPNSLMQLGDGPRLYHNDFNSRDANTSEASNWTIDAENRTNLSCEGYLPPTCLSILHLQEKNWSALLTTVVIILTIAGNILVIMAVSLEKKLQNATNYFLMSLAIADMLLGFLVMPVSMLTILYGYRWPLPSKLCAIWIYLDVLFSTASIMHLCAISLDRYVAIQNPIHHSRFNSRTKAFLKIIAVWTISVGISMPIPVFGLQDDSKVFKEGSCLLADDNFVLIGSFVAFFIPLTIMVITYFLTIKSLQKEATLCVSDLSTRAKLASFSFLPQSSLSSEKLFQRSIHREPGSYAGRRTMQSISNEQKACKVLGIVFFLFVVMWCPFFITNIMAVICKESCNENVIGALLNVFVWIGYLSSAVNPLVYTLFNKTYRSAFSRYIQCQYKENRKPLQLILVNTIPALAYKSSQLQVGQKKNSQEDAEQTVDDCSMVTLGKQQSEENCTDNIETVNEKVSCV
Method Description: In Vitro Inhibition of 5HT2-Receptor Binding (3H-Ketanserine)
Condition Context: 3H-Ketanserine 0.4 nM, rat frontal cortex, 37° C., 15 min
Where a name gives a salt, the structure may show the parent alone.
Binary label based on IC50 with cut-off 10 nM: below gives Condition met, not below gives Condition not met.

[
  {
    "Compound": "O=C(Nc1ccc2ncsc2c1)OCCCN1CCN(c2ccc(Cl)cc2)CC1 [Example 19, hydrochloride]",
    "Classification": "Condition not met"
  },
  {
    "Compound": "COc1cc(NC(=O)OCCCN2CCN(c3ccccc3Cl)CC2)cc(OC)c1OC.Cl [Example 3, hydrochloride]",
    "Classification": "Condition met"
  },
  {
    "Compound": "COc1cc(NC(=S)OCCCN2CCN(c3ccccc3Cl)CC2)cc(OC)c1OC [Example 24, hydrochloride]",
    "Classification": "Condition not met"
  },
  {
    "Compound": "COc1ccc2cccc(N3CCN(CCCOC(=O)Nc4ccc5c(c4)OCO5)CC3)c2c1 [Example 34, HCl]",
    "Classification": "Condition not met"
  }
]
